Listed here are molecules together with their documented AUC(0-t).
Experiment: PK study in ICR mice (plasma)
Format: in vivo
Conditions: mouse, Female ICR mice, IV 1 mg/kg
Protocol: Example 9 PK Study of Compound in ICR Mice (plasma) The compound was mixed with the vehicle (10% DMSO / 5% Solutol HS 15 / 85% saline), vortexed, and sonicated to prepare a clear solution at 0.2 mg/mL. Female ICR mice aged 6 to 7 weeks (non-fasted) were intravenously administered the compound. Plasma was collected at specified time points. Drug concentration was analyzed by LC-MS/MS, and pharmacokinetic parameters were calculated using Phoenix WinNonlin software (Pharsight Corporation, USA). […]
// unit must come after the numeric part

| molecule | AUC(0-t) |
| --- | --- |
| CCc1c(F)ccc2cc(O)cc(-c3ncc4c(N5CCC[C@@](C)(O)C5)nc(OCC5(CN6CCC(Oc7ccc(-c8cn([C@H](C(=O)N9C[C@H](O)C[C@H]9C(=O)N[C@@H](C)c9ccc(-c%10scnc%10C)cc9)C(C)C)nn8)cn7)CC6)CC5)nc4c3F)c12 [Compound 135] | 2750 ng·h/mL |
| CCc1c(F)ccc2cc(O)cc(-c3ncc4c(N5CCC[C@@](C)(O)C5)nc(OCC5(CN6CCC(Oc7cnc(-c8cn([C@H](C(=O)N9C[C@H](O)C[C@H]9C(=O)N[C@@H](C)c9ccc(-c%10scnc%10C)cc9)C(C)C)nn8)cn7)CC6)CC5)nc4c3F)c12 [Compound 144] | 2730 ng·h/mL |

Problem: AUC(0-t) lookup needed for CCc1c(F)ccc2cc(O)cc(-c3ncc4c(N5CCC[C@@](C)(O)C5)nc(OCC5(CN6CCN(c7ccc(-c8cn([C@H](C(=O)N9C[C@H](O)C[C@H]9C(=O)N[C@@H](C)c9ccc(-c%10scnc%10C)cc9)C(C)C)nn8)cn7)CC6)CC5)nc4c3F)c12 [Compound 142] , thanks.
Solution: 2300 ng·h/mL

The reported measurements were obtained from patent EP4631940A1.
